Sourced from PubChem BioAssay (NCI)

Test system: SK-MEL-2 melanoma
Assay: NCI-60 one-dose screen, 48 h
Details: 10 µM unless noted
Compounds without any hit were thinned out: in the full panel of roughly 83,000, 20% have a hit. Active and inactive are the calls of the source. How the source made its calls: active means growth percent below 10; inactive means the rest.
Tick one outcome: True = active, False = inactive

Fill in: this test's call for `Cc1ncc(C(=O)Nc2ccc(CN3CCN(C)CC3)c(C(F)(F)F)c2)cc1C#Cc1c(N)ncc2ccc(F)cc12` is ___ True

Fill in: this test's call for CC1(C)C(O)NC(Cl)=C(C#N)C1(C#N)C#N (stereo not given) is ___ False

Fill in: this test's call for `Brc1ccc(-c2nc3ccccc3s2)cc1` is ___ False

Fill in: this test's call for `CC(C)(CNC1CCCCC1)OC(=O)c1ccccc1` is ___ False

Fill in: this test's call for `S=C(N/N=C/c1cc(Cl)cc(Cl)c1)NC12CC3CC(CC(C3)C1)C2` is ___ False

---

growth values by entry
Test system: OVCAR-4 ovarian
Assay: NCI-60 one-dose screen, 48 h (100 = growth as untreated, 0 = no growth, -100 = all killed)
Details: 10 µM unless noted
This is part of a sample that, as a whole, favours compounds with a hit. Of some 83,000 tested, about 20% had one in any assay.
Hi! Could you send only the number? It should be in %, unit omitted.

Consider the reported growth for these compounds:
Clc1ccc(N/N=C/c2ccccn2)nc1: 6.01
O=C(Nc1ccc(-n2cc(-c3ccncc3)c(-c3ccc(Cl)c(O)c3)n2)cc1)c1cc(Cl)cc(Cl)c1: 91.8
CCCC(=O)Nc1ccccc1C(=O)O: 101
N=C(N)c1ccc(-c2ccc(-c3cc(Cl)cc(Cl)c3)s2)cc1: -66.1

The observed growth for `COc1cc(Cn2ccc3c2-c2oncc2CC3)cc(OC)c1` when tested with OVCAR-4 ovarian stands at 61.7

The observed growth for `C[C@@H](c1ccc2c(c1)[nH]c1ccc(Cl)cc12)c1nc2ccccc2[nH]1` when tested with OVCAR-4 ovarian stands at 94

The observed growth for `O=C(O)c1occ(Cl)c1Cl` when tested with OVCAR-4 ovarian stands at 115

The observed growth for `CCCCCCNC(=O)Oc1ccc(/C(=C(/C)Cc2ccc(OC)cc2)c2ccc(OCCN(C)C)cc2)cc1` when tested with OVCAR-4 ovarian stands at 76.8

The observed growth for `C[n+]1c2ccccc2c(Nc2ccc(NS(=O)(=O)CCCCN=C(N)N)cc2)c2ccc(N)cc21` when tested with OVCAR-4 ovarian stands at 72.9

The observed growth for `COc1ccccc1Nc1nnc(COc2ccc(CNC(=O)CCCC/C=C/C(C)C)cc2OC)o1` when tested with OVCAR-4 ovarian stands at 101

The observed growth for NC(=O)CC(NC(=O)COc1ccc(Cl)cc1Cl)C(=O)O (stereo unspecified) when tested with OVCAR-4 ovarian stands at 112

---

Test system: OVCAR-8 ovarian
Test: NCI-60 one-dose screen, 48 h (100 = growth as untreated, 0 = no growth, -100 = all killed)
Details: 10 µM unless noted
This is part of a sample that, as a whole, favours compounds with a hit. Of some 83,000 tested, about 20% had one in any assay.
Please note: Fulfilled applies when growth is 80% or greater, and Not fulfilled applies otherwise.

Reference set (4 entries):
O=C(NCCNCCO)c1cc([N+](=O)[O-])cc([N+](=O)[O-])c1O: Fulfilled
C=C(C)C(C(=O)OCC)(C(=O)OCC)C(C)C: Fulfilled
Cc1ccc(S(=O)(=O)N/N=C2\CC3CCC2C3)cc1 (stereo not given): Fulfilled
O=C1Nc2c(c(=O)n(-c3ccccc3)c3ccccc23)C(c2ccc(Cl)cc2)N1 (stereo not given): Fulfilled

With those in mind, consider the next molecule.
# bool: growth of COc1cccc(CNC(=O)c2cccc(C3CC(=O)c4c(cc(OC)c(OC)c4OC)O3)c2)c1 (stereo not given) >= 80% Not fulfilled

---

Test system: ACHN renal
Assay: NCI-60 one-dose screen, 48 h (100 = growth as untreated, 0 = no growth, -100 = all killed)
Details: 10 µM unless noted
This is part of a sample that, as a whole, favours compounds with a hit. Of some 83,000 tested, about 20% had one in any assay.
Please note: 1 applies when growth is 60% or greater, and -1 applies otherwise.

O=C1C(Br)=CC2C1C1C3CCC3C2(Br)C12OCCO2 (stereo unspecified): -1
CC(C)CCCCCOC(=O)c1ccccc1SSc1ccccc1C(=O)OCCCCCC(C)C: 1

# bool: growth of `COc1ccc(OC)c(Cn2cc3c(c2-c2ccccc2)CCc2cnoc2-3)c1` >= 60% 1

# bool: growth of NC(=O)CC(NC(=O)COc1ccc(Cl)cc1Cl)C(=O)O (stereo unspecified) >= 60% 1

# bool: growth of `Nc1ccc(S(=O)(=O)c2ccc(NO)cc2)cc1` >= 60% 1

# bool: growth of `O=C(Cc1ccccc1[N+](=O)[O-])c1ccc2c(c1)OCO2` >= 60% 1

# bool: growth of `O=c1oc2ccc3ccccc3c2cc1-c1ccnc2[nH]c(=S)[nH]c(=O)c12` >= 60% 1

# bool: growth of `c1ccc(-c2cn3ccnc3c(-c3ccc4ncn(C5CCCCC5)c4c3)n2)cc1` >= 60% 1

# bool: growth of CCOC(=O)C1=C(C(F)(F)F)NC(=S)NC1CN1C(=O)c2ccccc2C1=O (stereo unspecified) >= 60% 1

---

System: NCI/ADR-RES ovarian
Assay: NCI-60 one-dose screen, 48 h (100 = growth as untreated, 0 = no growth, -100 = all killed)
Details: 10 µM unless noted
About 83,000 compounds went through this panel and 20% of them were active in at least one assay; those are over-represented in the sample as a whole. Calls of active or inactive are those of the source. How the source made its calls: active means growth percent below 10; inactive means the rest.
readout: growth

The reported growth of the compound `COc1ccc2c(c1)/C(=C/c1c(-c3cc(OC)c(OC)c(OC)c3)nc3sccn13)C(=O)N2` was 98.9% (inactive)

---

Test system: SNB-75 CNS
Assay: NCI-60 one-dose screen, 48 h (100 = growth as untreated, 0 = no growth, -100 = all killed)
Settings: 10 µM unless noted
The panel holds about 83,000 compounds, 20% with a hit somewhere; the sample as a whole holds those more often.
readout: growth (%)
Hi! Could you send only the number? It should be in %, unit omitted.

CC(=O)Nc1nc(C)c(C(=O)NNS(=O)(=O)c2ccccc2)s1: 88.2

The reported growth of the compound `CCN(CCO)CCNc1ccc(C)c2sc3cc(OC)ccc3c(=O)c12` was 70.9

The reported growth of the compound `O=C(/C=C/c1ccc(Br)cc1)c1ccccc1` was 101

The reported growth of the compound `COc1ccc2sc(-n3nc4nc5n(c(=O)c4c3N)-c3ccccc3Sc3ccccc3-5)nc2c1` was 73.8

The reported growth of the compound O=P(OCCCl)(OCCCl)C(O)c1ccccc1Cl (stereo unspecified) was 96.7

The reported growth of the compound `Oc1ccc(Br)cc1/C=N/NC(=S)NC12CC3CC(CC(C3)C1)C2` was 53.3

---

growth values by entry
System: NCI-H460 lung
Assay: NCI-60 one-dose screen, 48 h (100 = growth as untreated, 0 = no growth, -100 = all killed)
Conditions: 10 µM unless noted
This is part of a sample that, as a whole, favours compounds with a hit. Of some 83,000 tested, about 20% had one in any assay. Active and inactive are the calls of the source. The calls were made as follows: active = growth percent below 10; inactive = the rest.

NCCCOc1cc2ccccc2cc1C(=O)Nc1ccc(Cl)cc1OC(=O)c1cc2ccccc2cc1OCCCN: -89.7% (active)
CCS(=O)(=O)OCCO[C@H]1Cc2cc3ccc(=O)oc3cc2OC1(C)C: 105% (inactive)
Nc1ccc(S(=O)(=O)Nc2cc(F)cc(F)c2)cc1: 110% (inactive)
N=C(c1ccccc1)N(Cc1ccccc1)Cc1ccccc1: 98.3% (inactive)

The reported growth of the compound `O=c1[nH]c2cc(O)ccc2n2cc3c(F)cccc3c12` was 2.7% (active)

The reported growth of the compound `COc1cc(-c2nn(-c3ccc(NC(=O)c4ccc(Cl)c(C(F)(F)F)c4)cc3)cc2-c2ccncc2)ccc1Cl` was 11.9% (inactive)

The reported growth of the compound `O=Nc1c(-c2c(O)[nH]c3cc(Br)ccc23)[nH]c2ccccc12` was -72.8% (active)

The reported growth of the compound COc1cc(NC(C)CCCN)c2nc(C)ccc2c1OC (stereo unspecified) was 109% (inactive)

The reported growth of the compound `COc1cccc(Cn2cc3c(c2)-c2oncc2CC3)c1` was 1.35% (active)

The reported growth of the compound `N#CCc1ncc(-c2ccc(C(F)(F)F)cc2)c(NC2CCCCCC2)n1` was 8.28% [100 µM] (active)

The reported growth of the compound `O=C1CCNC1` was 109% (inactive)

---

Test system: U251 CNS
Assay: NCI-60 one-dose screen, 48 h
Conditions: 10 µM unless noted
The panel holds about 83,000 compounds, 20% with a hit somewhere; the sample as a whole holds those more often. The source made the active and inactive calls. How the source made its calls: active means growth percent below 10; inactive means the rest.
Tick one outcome: active, inactive

CC(=O)N1CCN(CCNC(=O)n2cc(-c3ccncc3)c(-c3ccc(O)c(Cl)c3)n2)CC1: inactive
COc1ccc(OC)c(Cn2cc3c(c2)-c2oncc2CC3)c1: inactive
COc1ccc(C2C3(C#N)C(N)=NC(=C(C#N)C#N)C23C#N)cc1OC (stereo not given): inactive
COc1ccc(Cn2cc3c(c2-c2ccccc2)CCc2cnoc2-3)cc1OC: inactive
CCS(=O)(=O)N[C@@H]1O[C@H](COC(C)=O)C(OC(C)=O)[C@H](OC(C)=O)C1OC(C)=O (stereo not given in full): inactive
COC(=O)C(C(=O)OC)C(Br)C(Br)C(Br)c1ccccc1 (stereo not given): inactive

Fill in: this test's call for `O=C(O)c1ccc(-c2nn(-c3ccc(C(=O)O)cc3)cc2CNc2ccc(Br)cc2)cc1` is ___ inactive
